Data provenance: PubChem BioAssay (NCI)

Experiment: NCI Yeast Anticancer Drug Screen. Data for the mec2-1 strain (AID 157)
Conditions: S. cerevisiae mec2-1 strain, at 50.0 µM, active compounds read high
About 79,000 compounds went through this panel and 15% of them were active in at least one assay; those are over-represented in the sample as a whole.
Label fulfilled for high-side growth inhibition (at or above -10%) and not fulfilled for low-side growth inhibition (below it).

Some solved cases for reference:
1. O=C(O)CCCCCN1C(=O)c2cccc([N+](=O)[O-])c2C1=O	fulfilled
2. CCCCC(N)CSSCC(N)CCCC (stereo unspecified)	not fulfilled
3. CCOC(=O)CCC(C(=O)c1cccnc1)c1ccccn1 (stereo unspecified)	fulfilled

Exercise: Reported growth inhibition reaches at least -10% for `COC(=O)c1c(C(=O)c2ccccc2)nn2c(-c3ccccc3)c(-c3ccccc3)c(-c3ccccc3)c(-c3ccccc3)c12` ?
Solution: fulfilled

Exercise: Reported growth inhibition reaches at least -10% for `CCC(CC)C(=O)OCCCc1ccccc1` ?
Solution: fulfilled

====

Test: NCI Yeast Anticancer Drug Screen. Data for the mlh1 rad18 strain (AID 175)
Conditions: S. cerevisiae mlh1 rad18 strain growth inhibition; at 50.0 µM
The panel holds about 79,000 compounds, 15% with a hit somewhere; the sample as a whole holds those more often. Active and inactive are the calls of the source. Cut-off read from the data, not from the text of the source: active = growth inhibition above about 70%; inactive = the rest.
Give one outcome, nothing more. List: active, inactive

Some solved cases for reference:
1) O=c1[nH]c(-c2ccccc2)c(-c2ccccc2)nc1Cl	inactive
2) O=C1/C(=C/c2ccccc2)CCc2ccc([N+](=O)[O-])cc21	inactive
3) Fc1cccc(C2ON=C(c3ccccc3)N2C23CC4CC(CC(C4)C2)C3)c1 (centres undefined)	inactive
4) O=C(/C=C/c1cccs1)c1ccc([N+](=O)[O-])cc1	inactive
5) COc1ccc(C[C@@H]2Cc3cc(OC)c(OC)cc3CN2C)cc1	inactive

Exercise: Query: recorded result category for `CN(C)CCC(=O)C(=Cc1ccc(O)cc1)C(=O)CCN(C)C` in this test
Solution: inactive

Exercise: Query: recorded result category for `C[n+]1ccccc1/C=C/c1ccc2c(c1)OCO2` in this test
Solution: inactive

Exercise: Query: recorded result category for [Cl][Pt+2][Cl].[NH-]C1CCCC1[NH-] (centres undefined) in this test
Solution: inactive

Exercise: Query: recorded result category for CC1CCC2C1(C)CCC1C2(C)CCC2(C)C3CC(C)(C)CCC3(C)CCC12C (centres undefined) in this test
Solution: inactive

Exercise: Query: recorded result category for `CCCC1(CCC)NC(=O)N(CC(N)=O)C1=O` in this test
Solution: inactive

====

Experiment: NCI Yeast Anticancer Drug Screen. Data for the mlh1 rad18 strain (AID 175)
Conditions: S. cerevisiae mlh1 rad18 strain growth inhibition; at 50.0 µM
Compounds without any hit were thinned out: in the full panel of roughly 79,000, 15% have a hit. Calls of active or inactive are those of the source. No stated cut-off is given here; in the data, active means growth inhibition above about 70%; inactive means the rest.
Give one outcome, nothing more. List: yes = active, no = inactive

Some solved cases for reference:
1. Cc1cc(C)c(C(=O)Oc2ccc(C)c(CC(Cl)(Cl)Cl)c2)c(C)c1	no
2. O=C(Nc1ccccc1[N+](=O)[O-])C(=O)C(C(=O)c1ccccc1-c1ccccc1)C1OC(=O)c2ccccc21 (stereo unspecified)	no
3. COc1ccc(OC)c(C(C)=O)c1	no
4. NNC(=O)CCSCCC(=O)NN	no

Next, consider the following compound.
Exercise: Query: recorded result category for OC(CNc1ccccn1)c1ccccc1 (stereo unspecified) in this test
Solution: no
